From: paper PMC6403222

target: RIP3 (Homo sapiens, UniProt Q9Y572)
Sequence (Q9Y572 21-287 limits assumed): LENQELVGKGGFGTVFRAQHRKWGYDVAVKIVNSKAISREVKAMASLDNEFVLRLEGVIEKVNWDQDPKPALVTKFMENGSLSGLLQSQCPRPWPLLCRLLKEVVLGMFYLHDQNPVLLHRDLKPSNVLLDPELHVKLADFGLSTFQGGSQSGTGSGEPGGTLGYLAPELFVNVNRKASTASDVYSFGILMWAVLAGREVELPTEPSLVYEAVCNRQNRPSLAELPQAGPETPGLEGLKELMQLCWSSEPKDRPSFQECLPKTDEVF
metric: pKd
Note on pKd: it is the negative log10 of concentration, concentration in mol/L.

Query block: Lab note: need pKd for Cn1cc(-c2cnc(N)c3c(-c4ccc5c(c4)CCN5C(=O)Cc4ccccc4)csc23)cn1 [GSK'074, GSK2593074A] on RIP3 (Homo sapiens, UniProt Q9Y572), anyone have it?
Result block: 6.89

###

Target: RIP1 (Homo sapiens, UniProt Q13546)
Sequence (Q13546 1-294 limits assumed): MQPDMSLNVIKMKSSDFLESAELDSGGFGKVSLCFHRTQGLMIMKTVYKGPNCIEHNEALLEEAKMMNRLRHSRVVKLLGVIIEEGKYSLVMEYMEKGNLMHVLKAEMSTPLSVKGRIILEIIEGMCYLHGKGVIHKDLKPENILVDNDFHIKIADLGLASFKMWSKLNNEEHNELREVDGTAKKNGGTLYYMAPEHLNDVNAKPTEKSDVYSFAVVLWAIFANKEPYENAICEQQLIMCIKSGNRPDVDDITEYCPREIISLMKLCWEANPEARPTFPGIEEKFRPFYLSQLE
metric: pKd
Note on pKd: it is the negative log10 of concentration, concentration in mol/L.

Query block: Lab note: need pKd for Cn1cc(-c2cnc(N)c3c(-c4ccc5c(c4)CCN5C(=O)Cc4ccccc4)csc23)cn1 [GSK'074, GSK2593074A] on RIP1 (Homo sapiens, UniProt Q13546), anyone have it?
Result block: 7.92
